B1: LINE1-mini (parent)
chain: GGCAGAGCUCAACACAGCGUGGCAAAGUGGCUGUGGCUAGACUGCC

variants of: B1; assay: self-cleavage, relative activity (ratio to wild type); higher = more cleavage; in vitro, sequencing; the parent is a self-cleaving ribozyme
The variants listed here are annotated with their self-cleavage.
Respond with the number and no other words.

C10A C46U : 0.07
A11C U43C : 0.02
A11G A26U : 0.02
U38A A39C : 0.49
G19A G22U : 0.99

# input variant: C13G G27C ; wanted: its self-cleavage 0.08

# input variant: U9C C46A ; wanted: its self-cleavage 0.03

# input variant: A11G G29A ; wanted: its self-cleavage 0.04

# input variant: G21A G22U ; wanted: its self-cleavage 0.56

# input variant: G22C C46U ; wanted: its self-cleavage 0.65

# input variant: A14G G36U ; wanted: its self-cleavage 0.12

# input variant: G7A G35C ; wanted: its self-cleavage 0.13

# input variant: G21A C42A ; wanted: its self-cleavage 0.54

# input variant: U9A G17C ; wanted: its self-cleavage 0.06

# input variant: C23G G35C ; wanted: its self-cleavage 0.12

# input variant: U9A C31U ; wanted: its self-cleavage 0.04
